Reference source for all entries: ChEMBL document CHEMBL5321209

target: Protein ENL (Homo sapiens, UniProt Q03111); experiment: Inhibition of C-terminal ENL YEATS domain (unknown origin) (M1 to A148 residues) using biotinylated peptide as substrate by alpha screen assay
pIC50: −log10 of the molar value.
Attribute Measured: pIC50

| Compound String | Measured Result |
| --- | --- |
| COC(=O)c1ccc(C(=O)Nc2ccc3[nH]c(CN4CCCCC4)nc3c2)cc1 | 5.80 |

====

Molecular target: Protein ENL (Homo sapiens, UniProt Q03111)
Sequence (Q03111 whole entry): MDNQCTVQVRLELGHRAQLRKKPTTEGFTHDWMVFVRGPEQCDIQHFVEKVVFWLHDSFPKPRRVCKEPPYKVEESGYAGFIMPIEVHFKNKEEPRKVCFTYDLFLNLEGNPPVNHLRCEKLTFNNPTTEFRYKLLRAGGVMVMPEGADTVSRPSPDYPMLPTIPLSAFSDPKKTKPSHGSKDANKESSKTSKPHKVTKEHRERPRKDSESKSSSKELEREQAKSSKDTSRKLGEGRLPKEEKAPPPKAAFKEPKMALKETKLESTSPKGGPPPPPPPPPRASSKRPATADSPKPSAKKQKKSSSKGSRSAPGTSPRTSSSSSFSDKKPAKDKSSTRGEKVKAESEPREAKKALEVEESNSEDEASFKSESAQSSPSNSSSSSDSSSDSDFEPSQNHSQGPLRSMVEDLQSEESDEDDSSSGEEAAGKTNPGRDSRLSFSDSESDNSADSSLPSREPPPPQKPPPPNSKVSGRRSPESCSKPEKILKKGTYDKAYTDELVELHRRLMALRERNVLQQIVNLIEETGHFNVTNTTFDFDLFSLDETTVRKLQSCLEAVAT
Assay: Binding affinity toC-terminal 6xHis-tagged ENL YEATS domain (1 to 148 residues) (unknown origin) assessed as dissociation constant by BLI assay
pKd: −log10 of the molar value.

| Compound String | pKd |
| --- | --- |
| O=C(/C=C/c1ccc(-n2ccnc2)cc1)N1CCN(C(=O)c2ccco2)CC1 | 4.85 |

====

# Lookup of reported ΔTm keyed by entry
Molecular target: UniProt:Q03111
Sequence (whole entry): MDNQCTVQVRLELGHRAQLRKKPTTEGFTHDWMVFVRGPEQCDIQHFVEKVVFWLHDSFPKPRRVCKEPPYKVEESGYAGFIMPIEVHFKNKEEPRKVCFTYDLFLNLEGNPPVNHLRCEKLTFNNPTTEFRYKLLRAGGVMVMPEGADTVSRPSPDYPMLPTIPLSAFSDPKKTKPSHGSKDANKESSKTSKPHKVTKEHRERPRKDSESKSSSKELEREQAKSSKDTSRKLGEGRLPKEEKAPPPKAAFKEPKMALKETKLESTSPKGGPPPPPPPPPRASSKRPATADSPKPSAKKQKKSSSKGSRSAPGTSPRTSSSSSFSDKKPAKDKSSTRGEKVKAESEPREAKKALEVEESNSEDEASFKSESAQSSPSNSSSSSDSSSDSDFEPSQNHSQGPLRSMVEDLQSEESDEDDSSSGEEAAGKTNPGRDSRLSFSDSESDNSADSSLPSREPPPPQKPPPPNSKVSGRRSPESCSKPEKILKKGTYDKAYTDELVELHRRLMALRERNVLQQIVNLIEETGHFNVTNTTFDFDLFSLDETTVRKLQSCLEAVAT
Conditions: dose 50.0 µM
Attribute Measured: ΔTm (°C)

| Compound String | Attribute Measured | Unit Annotation | Measured Result |
| --- | --- | --- | --- |
| C[C@H]1CCCN1Cc1nc2cc(NC(=O)c3ccc4c(c3)c3ccccc3c(=O)n4C)ccc2[nH]1 | ΔTm | °C | 5.5 |
| C[C@H]1CCCN1Cc1nc2cc(NC(=O)c3ccc4c(cnn4C)c3)ccc2[nH]1 | ΔTm | °C | 4.3 |
| C[C@H]1CCCN1Cc1nc2cc(NC(=O)c3ccc4c(cnn4CCN4CCOCC4)c3)ccc2[nH]1 | ΔTm | °C | 3.5 |
| Cc1noc2cc(C(=O)Nc3ccc4[nH]c(CN5CCC[C@@H]5C)nc4c3)ccc12 | ΔTm | °C | 4.9 |

====

Entries annotated with measured inhibition
Target: Protein ENL (Homo sapiens)
Sequence (whole entry): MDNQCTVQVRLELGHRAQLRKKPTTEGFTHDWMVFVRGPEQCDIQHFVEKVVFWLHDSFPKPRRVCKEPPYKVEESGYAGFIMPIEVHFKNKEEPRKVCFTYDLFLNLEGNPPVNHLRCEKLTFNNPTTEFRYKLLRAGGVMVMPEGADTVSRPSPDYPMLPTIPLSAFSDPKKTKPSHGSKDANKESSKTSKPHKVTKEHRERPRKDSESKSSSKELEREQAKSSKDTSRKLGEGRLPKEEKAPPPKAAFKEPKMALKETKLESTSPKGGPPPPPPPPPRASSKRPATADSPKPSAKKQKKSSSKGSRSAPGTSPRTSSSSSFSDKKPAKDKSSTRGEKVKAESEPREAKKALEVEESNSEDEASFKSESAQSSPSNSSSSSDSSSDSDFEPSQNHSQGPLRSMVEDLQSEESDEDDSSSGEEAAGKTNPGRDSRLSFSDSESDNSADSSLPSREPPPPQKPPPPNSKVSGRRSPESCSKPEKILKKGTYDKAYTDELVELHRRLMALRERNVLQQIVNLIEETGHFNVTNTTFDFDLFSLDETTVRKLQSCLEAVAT
Details: dose 333.0 nM, time 45.0 min
Attribute Measured: inhibition (%)

| Molecule | Attribute Measured | Unit Annotation | Measured Result |
| --- | --- | --- | --- |
| C[C@H]1CCCN1Cc1nc2cc(NC(=O)c3ccc4nn(C)cc4c3)ccc2[nH]1 | inhibition | % | 99.6 |
| C[C@H]1CCCN1Cc1nc2cc(NC(=O)c3ccc4c5ccccc5c(=O)n(C)c4c3)ccc2[nH]1 | inhibition | % | 100 |
| C[C@H]1CCCN1Cc1nc2cc(NC(=O)c3ccc4nn(C5CCCC5)cc4c3)ccc2[nH]1 | inhibition | % | 96.1 |
| C[C@H]1CCCN1Cc1nc2cc(NC(=O)c3ccc4c(cnn4CCN4CC(O)C(O)C4C(O)CO)c3)ccc2[nH]1 (stereo partly drawn) | inhibition | % | 99.3 |
| Cc1cccc2c(=O)n(C)c3ccc(C(=O)Nc4ccc5[nH]c(CN6CCC[C@@H]6C)nc5c4)cc3c12 | inhibition | % | 95.6 |
| Cc1noc2cc(C(=O)Nc3ccc4[nH]c(CN5CCC[C@@H]5C)nc4c3)ccc12 | inhibition | % | 99.9 |
| C[C@H]1CCCN1Cc1nc2cc(NC(=O)c3ccc4c(cnn4CCN)c3)ccc2[nH]1 | inhibition | % | 100 |
| CCCCn1cc2cc(C(=O)Nc3ccc4[nH]c(CN5CCC[C@@H]5C)nc4c3)ccc2n1 | inhibition | % | 100 |
| C[C@H]1CCCN1Cc1nc2cc(NC(=O)c3ccc4c(cnn4CCNC(=O)Nc4cccc(F)c4)c3)ccc2[nH]1 | inhibition | % | 97.8 |
| C[C@H]1CCCN1Cc1nc2cc(NC(=O)c3ccc4c(c3)c3cc(F)ccc3c(=O)n4C)ccc2[nH]1 | inhibition | % | 99.2 |
| C[C@H]1CCCN1Cc1nc2cc(NC(=O)c3ccc4c(cnn4C)c3)ccc2[nH]1 | inhibition | % | 99.7 |
| C[C@H]1CCCN1Cc1nc2cc(NC(=O)c3ccc4nn(CCNC(=O)OC(C)(C)C)cc4c3)ccc2[nH]1 | inhibition | % | 99.1 |
| C[C@H]1CCCN1Cc1nc2cc(NC(=O)c3ccc4c(cnn4CCNC(=O)c4ccccc4)c3)ccc2[nH]1 | inhibition | % | 99 |
| C[C@H]1CCCN1Cc1nc2cc(NC(=O)N3C(CO)C(O)C(O)C3CO)ccc2[nH]1 (stereo partly drawn) | inhibition | % | 98.5 |
| C[C@H]1CCCN1Cc1nc2cc(NC(=O)c3ccc4c5ccccc5n(C)c4c3)ccc2[nH]1 | inhibition | % | 96.5 |
| C[C@H]1CCCN1Cc1nc2cc(NC(=O)c3ccc4c(cnn4CCN4CC5OC(C)(C)OC5C4C4COC(C)(C)O4)c3)ccc2[nH]1 (stereo partly drawn) | inhibition | % | 99.6 |
| CCn1ncc2cc(C(=O)Nc3ccc4[nH]c(CN5CCC[C@@H]5C)nc4c3)ccc21 | inhibition | % | 100 |
| Cc1nnc2ccc(C(=O)Nc3ccc4[nH]c(CN5CCC[C@@H]5C)nc4c3)cn12 | inhibition | % | 84.5 |

====

biological target: Protein ENL (Homo sapiens) (UniProt Q03111); conditions: dose 25.0 µM
Listing: ΔTm of selected molecules

| Compound String | ΔTm [°C] |
| --- | --- |
| C[C@H]1CCCN1Cc1nc2cc(NC(=O)c3ccc4c(cnn4C)c3)ccc2[nH]1 | 3.1 |
| C[C@H]1CCCN1Cc1nc2cc(NC(=O)c3ccc4c(cnn4CCN4CCOCC4)c3)ccc2[nH]1 | 2 |
| C[C@H]1CCCN1Cc1nc2cc(NC(=O)c3ccc4c(c3)c3ccccc3c(=O)n4C)ccc2[nH]1 | 4.3 |
| Cc1noc2cc(C(=O)Nc3ccc4[nH]c(CN5CCC[C@@H]5C)nc4c3)ccc12 | 3.9 |
